target: guinea pig trachea (Cavia porcellus, UniProt Q64077); experiment: Guinea Pig Trachea Assay (Test B), antagonism of NKA or [β-ala^8]-NKA(4-10); type: cell-based; settings: guinea pig trachea; apparent dissociation constant, -log molar KB; read-out: pKB (Test B) (converted)
Sequence (Q64077 whole entry): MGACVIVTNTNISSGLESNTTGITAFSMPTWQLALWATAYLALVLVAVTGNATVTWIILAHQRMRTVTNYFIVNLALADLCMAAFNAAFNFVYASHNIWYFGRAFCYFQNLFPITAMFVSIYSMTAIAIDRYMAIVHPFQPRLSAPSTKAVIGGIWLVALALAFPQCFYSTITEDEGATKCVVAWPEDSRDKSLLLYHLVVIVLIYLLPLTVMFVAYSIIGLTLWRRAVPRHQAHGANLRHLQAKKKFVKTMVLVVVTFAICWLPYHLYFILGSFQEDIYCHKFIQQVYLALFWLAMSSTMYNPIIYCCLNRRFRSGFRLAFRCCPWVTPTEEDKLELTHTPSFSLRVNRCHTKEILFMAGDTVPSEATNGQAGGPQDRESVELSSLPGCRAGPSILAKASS
Where a name gives a salt, the structure may show the parent alone.
RESULT TYPE: Kb (nM)

>>> recorded_measurement("CN(CC(CCN1CCC(c2ccccc2O)CC1)c1ccc(Cl)c(Cl)c1)C(=O)c1ccccc1 (stereo not shown) [Example 6, hydrochloride]")
3.16

[A] COc1ccccc1C1CCN(CCC(CN(C)C(=O)c2ccccc2)c2ccc(Cl)c(Cl)c2)CC1 (stereo not shown) [Example 2, hydrochloride]
[B] Cc1nnc(C2CCN(CCC(CN(C)C(=O)c3ccccc3)c3ccc(Cl)c(Cl)c3)CC2)o1 (stereo not shown) [Example 7, hydrochloride]
*Q* Just tell me: smaller Kb value, A or B ? To answer, give the label that identifies your chosen option.
*A* A

---

Tested on: NK2 receptor
Experiment: Guinea Pig Labored Abdominal Breathing (Dyspnea) Assay (Test C), [β-ala^8]-NKA(4-10) aerosol
Assay type: in vivo
Conditions: 5 μmol/kg p.o., 120 min prior
Procedure: Guinea Pig Labored Abdominal Breathing (Dyspnea) Assay (Test C) […] Guinea pigs (275-400 g) are fasted for approximately 16 hours prior to experimentation. Compounds to be evaluated for blockade of effects of [β-ala^8 ]-NKA(4-10) or their vehicle (10% PEG400 in saline) are administered p.o. or i.v. at various times before aerosol agonist challenge. […]
# percent protection (Test C) annotations
# number only, unit % dropped from output

Worked set:
>>> recorded_measurement("CSc1ccccc1C1CCN(CCC(CN(C)C(=O)c2ccccc2)c2ccc(Cl)c(Cl)c2)CC1.Cl (stereo not shown)")
78
>>> recorded_measurement("CN(CC(CCN1CCC(c2ccccc2)CC1)c1ccc(Cl)c(Cl)c1)C(=O)c1ccccc1.Cl (stereo not shown)")
17
>>> recorded_measurement("CN(C[C@@H](CCN1CCC(c2ccc([S+](C)[O-])cc2)CC1)c1ccc(Cl)c(Cl)c1)C(=O)c1ccccc1.Cl (stereo partly shown)")
88
>>> recorded_measurement("CN(C[C@@H](CCN1CCC(c2cccnc2)CC1)c1ccc(Cl)c(Cl)c1)C(=O)c1ccccc1.Cl")
90

Data point: CN(C[C@@H](CCN1CCC(c2ccccc2[S+](C)[O-])CC1)c1ccc(Cl)c(Cl)c1)C(=O)c1ccccc1.Cl (stereo partly shown) ; percent protection (Test C) = 100

Data point: `CN(C[C@@H](CCN1CCC(c2ccccn2)CC1)c1ccc(Cl)c(Cl)c1)C(=O)c1ccccc1.Cl` ; percent protection (Test C) = 54

Data point: `CSc1ccc(C2CCN(CC[C@H](CN(C)C(=O)c3ccccc3)c3ccc(Cl)c(Cl)c3)CC2)cc1.Cl` ; percent protection (Test C) = 100

---

biological target: human NK2 receptor (Homo sapiens); test: Neurokinin A (NKA) Receptor-binding Assay (Test A), 3H-NKA binding to MEL cell membranes (MELM); details: read-out: Ki (Test A)
Structures can show the parent of a compound that is named as a salt.
RESULT TYPE: Ki (nM)

>>> recorded_measurement("CSc1ccc(C2CCN(CC[C@H](CN(C)C(=O)c3ccccc3)c3ccc(Cl)c(Cl)c3)CC2)cc1.Cl [Example 15, hydrochloride]")
2

[a] CN(C[C@@H](CCN1CCC(c2ccc([S+](C)[O-])cc2)CC1)c1ccc(Cl)c(Cl)c1)C(=O)c1ccccc1.Cl (some centres unmarked) [Example 16, hydrochloride]
[b] CN(C[C@@H](CCN1CCC(c2ccccn2)CC1)c1ccc(Cl)c(Cl)c1)C(=O)c1ccccc1.Cl [Example 27, hydrochloride]
[c] CSc1ccccc1C1CCN(CCC(CN(C)C(=O)c2ccccc2)c2ccc(Cl)c(Cl)c2)CC1.Cl (centres unmarked) [Example 13, hydrochloride]
[d] CN(CC(CCN1CC[C@H](c2ccccc2)[C@@H](O)C1)c1ccc(Cl)c(Cl)c1)C(=O)c1ccccc1 (relative stereo) [Example 10, hydrochloride]
[e] Cc1nnc(C2CCN(CCC(CN(C)C(=O)c3ccccc3)c3ccc(Cl)c(Cl)c3)CC2)o1 (centres unmarked) [Example 7, hydrochloride]
*Q* Task field, ranking: reported Ki, descending order. Lab note: final answer is the ordered label list.
*A* e, d, c, b, a
(e: 21.1 nM, d: 13 nM, c: 3 nM, b: 2 nM, a: 0.6 nM)

---

tested on: NK2 receptor; assay: Guinea Pig Labored Abdominal Breathing (Dyspnea) Assay (Test C), [β-ala^8]-NKA(4-10) aerosol; assay type: in vivo; conditions: 5 μmol/kg p.o., 120 min prior
RESULT TYPE: number fully protected/total number tested (Test C)

>>> recorded_measurement("CN(C[C@@H](CCN1CCC(c2ccccn2)CC1)c1ccc(Cl)c(Cl)c1)C(=O)c1ccccc1.Cl")
"2/6"
>>> recorded_measurement("CSc1ccccc1C1CCN(CCC(CN(C)C(=O)c2ccccc2)c2ccc(Cl)c(Cl)c2)CC1.Cl (stereo not shown)")
"3/6"
>>> recorded_measurement("CN(CC(CCN1CCC(c2ccccc2)CC1)c1ccc(Cl)c(Cl)c1)C(=O)c1ccccc1.Cl (stereo not shown)")
"0/6"

Data point: CN(C[C@@H](CCN1CCC(c2ccccc2[S+](C)[O-])CC1)c1ccc(Cl)c(Cl)c1)C(=O)c1ccccc1.Cl (stereo partly shown) ; number fully protected/total number tested (Test C) = 8/8

Data point: `CN(C[C@@H](CCN1CCC(c2cccnc2)CC1)c1ccc(Cl)c(Cl)c1)C(=O)c1ccccc1.Cl` ; number fully protected/total number tested (Test C) = 5/6

Data point: CN(C[C@@H](CCN1CCC(c2ccc([S+](C)[O-])cc2)CC1)c1ccc(Cl)c(Cl)c1)C(=O)c1ccccc1.Cl (stereo partly shown) ; number fully protected/total number tested (Test C) = 5/6

Data point: `CSc1ccc(C2CCN(CC[C@H](CN(C)C(=O)c3ccccc3)c3ccc(Cl)c(Cl)c3)CC2)cc1.Cl` ; number fully protected/total number tested (Test C) = 6/6

---

target: guinea pig trachea (Cavia porcellus); test: Guinea Pig Trachea Assay (Test B), antagonism of NKA or [β-ala^8]-NKA(4-10); format: cell-based; details: guinea pig trachea; apparent dissociation constant, -log molar KB; read-out: pKB (Test B) (converted)
Where a name gives a salt, the structure may show the parent alone.
RESULT TYPE: Kb (nM)

>>> recorded_measurement("CN(C[C@@H](CCN1CCC(c2cccnc2)CC1)c1ccc(Cl)c(Cl)c1)C(=O)c1ccccc1.Cl [Example 9, hydrochloride]")
2.51
>>> recorded_measurement("CSc1ccc(C2CCN(CC[C@H](CN(C)C(=O)c3ccccc3)c3ccc(Cl)c(Cl)c3)CC2)cc1.Cl [Example 15, hydrochloride]")
2
>>> recorded_measurement("CN(C[C@@H](CCN1CCC(c2ccccc2[S+](C)[O-])CC1)c1ccc(Cl)c(Cl)c1)C(=O)c1ccccc1.Cl (stereo partly shown) [Example 14, hydrochloride]")
0.316
>>> recorded_measurement("CN(C[C@@H](CCN1CCC(c2ccc([S+](C)[O-])cc2)CC1)c1ccc(Cl)c(Cl)c1)C(=O)c1ccccc1.Cl (stereo partly shown) [Example 16, hydrochloride]")
6.31
>>> recorded_measurement("CN(C[C@@H](CCN1CCC(c2ccccn2)CC1)c1ccc(Cl)c(Cl)c1)C(=O)c1ccccc1.Cl [Example 27, hydrochloride]")
12.6

[a] CN(CC(CCN1CC[C@H](c2ccccc2)[C@@H](O)C1)c1ccc(Cl)c(Cl)c1)C(=O)c1ccccc1 (relative stereo) [Example 10, hydrochloride]
[b] CSc1ccccc1C1CCN(CCC(CN(C)C(=O)c2ccccc2)c2ccc(Cl)c(Cl)c2)CC1.Cl (stereo not shown) [Example 13, hydrochloride]
*Q* Just tell me: smaller Kb value, a or b ? To answer, give the label that identifies your chosen option.
*A* b

---

Molecular target: human NK2 receptor (Homo sapiens)
Sequence (P21452 1-398): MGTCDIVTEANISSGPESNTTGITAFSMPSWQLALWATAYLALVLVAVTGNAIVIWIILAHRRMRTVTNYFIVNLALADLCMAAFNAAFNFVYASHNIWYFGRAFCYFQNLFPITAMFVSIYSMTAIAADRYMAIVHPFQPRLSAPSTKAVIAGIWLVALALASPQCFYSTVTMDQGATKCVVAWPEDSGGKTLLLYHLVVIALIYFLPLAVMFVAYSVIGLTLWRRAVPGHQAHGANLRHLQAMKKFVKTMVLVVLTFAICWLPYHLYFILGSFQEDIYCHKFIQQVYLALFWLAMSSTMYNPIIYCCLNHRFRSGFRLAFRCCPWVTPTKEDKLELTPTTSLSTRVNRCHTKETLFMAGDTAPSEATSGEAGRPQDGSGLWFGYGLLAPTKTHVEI
Assay: Neurokinin A (NKA) Receptor-binding Assay (Test A), 3H-NKA binding to MEL cell membranes (MELM)
Details: read-out: Ki (Test A)
Where a name gives a salt, the structure may show the parent alone.
RESULT TYPE: Ki (nM)

Worked set:
>>> recorded_measurement("COc1ccccc1C1CCN(CCC(CN(C)C(=O)c2ccccc2)c2ccc(Cl)c(Cl)c2)CC1 (centres unmarked) [Example 2, hydrochloride]")
9
>>> recorded_measurement("CN(CC(CCN1CCC(c2ccccc2O)CC1)c1ccc(Cl)c(Cl)c1)C(=O)c1ccccc1 (centres unmarked) [Example 6, hydrochloride]")
2.8
>>> recorded_measurement("CN(CC(CCN1CCC(c2ccccc2)CC1)c1ccc(Cl)c(Cl)c1)C(=O)c1ccccc1.Cl (centres unmarked) [Example 1, hydrochloride]")
2.6

[I] CN(C[C@@H](CCN1CCC(c2cccnc2)CC1)c1ccc(Cl)c(Cl)c1)C(=O)c1ccccc1.Cl [Example 9, hydrochloride]
[II] CN(C[C@@H](CCN1CCC(c2ccccc2[S+](C)[O-])CC1)c1ccc(Cl)c(Cl)c1)C(=O)c1ccccc1.Cl (some centres unmarked) [Example 14, hydrochloride]
*Q* Just tell me: smaller Ki value, I or II ? To answer, give the label that identifies your chosen option.
*A* II
